Below, each of the variants is paired with its reported abundance fitness value.
B1: E3 ubiquitin-protein ligase NEDD4-like, residues 539 to 589; numbered along this chain, Q96PU5 (parent)
chain: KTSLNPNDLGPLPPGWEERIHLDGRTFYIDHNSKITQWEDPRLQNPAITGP

# Variants of: B1
# procedureDetails: abundance fitness (aPCA) (normalised: wild type 0, dead -1); higher = more abundant; growth selection in yeast, the domain comes from the species named
# measurementContext: Homo sapiens
Could you respond with only the numeric value?

Worked cases, abundance fitness given:
> print(dat)
   mutantid  reportedresult
1      F27C          -0.056
2      F27V          -0.188
3      P11A           0.022
4      N32E           -0.03
5      D23P          -0.445
6      K34L          -0.284

// abundance fitness lookup, key: `K1A`
-0.774

// abundance fitness lookup, key: `P51V`
-0.65

// abundance fitness lookup, key: `L4W`
-0.283

// abundance fitness lookup, key: `L43W`
-0.333

// abundance fitness lookup, key: `D30I`
-0.87

// abundance fitness lookup, key: `H21C`
0.057

// abundance fitness lookup, key: `H21F`
-0.439

// abundance fitness lookup, key: `P14A`
0.008

// abundance fitness lookup, key: `L43C`
-0.11

// abundance fitness lookup, key: `I20P`
-0.226
